# test-conditions: limosilactobacillus reuteri cf48-3a, 12 h, 2 µM
# Description: The drug is tested on Lactobacillus reuteri CF48-3A strain: BEI HM-102 for biotransformation. The drug concentrations were measured before and after a 12-h incubation by liquid-chromatography-coupled mass spectrometry (LC–MS)
quantity-measured: Bacterial Biotransformation

compound	Bacterial Biotransformation
CO[C@]12C[C@@H](COC(=O)c3cncc(Br)c3)CN(C)[C@@H]1Cc1cn(C)c3cccc2c13 [NICERGOLINE]	Compound NOT metabolized
N[C@@H](Cc1ccc(N(CCCl)CCCl)cc1)C(=O)O	Compound metabolized
CN1C[C@H](C(=O)N[C@]2(C)O[C@@]3(O)[C@@H]4CCCN4C(=O)[C@H](Cc4ccccc4)N3C2=O)C=C2c3cccc4[nH]cc(c34)C[C@H]21.CN1C[C@H](C(=O)N[C@]2(C)O[C@@]3(O)[C@@H]4CCCN4C(=O)[C@H](Cc4ccccc4)N3C2=O)C=C2c3cccc4[nH]cc(c34)C[C@H]21.O=C(O)C(O)C(O)C(=O)O [ERGOTAMINE TARTRATE]	Compound metabolized
NC(CO)(CO)CO.O=C(c1ccccc1)c1ccc2n1CCC2C(=O)O (stereo not given) [KETOROLAC TROMETHAMINE]	Compound NOT metabolized
CCN(CC)C(=O)/C(C#N)=C/c1cc(O)c(O)c([N+](=O)[O-])c1 [ENTACAPONE]	Compound metabolized

Bacterial Biotransformation reported for this compound CCCC(=O)Nc1ccc(OCC(O)CNC(C)C)c(C(C)=O)c1 (stereo not given) [ACEBUTOLOL] : Compound NOT metabolized

According to the records, this compound COc1ccc2cc([C@H](C)C(=O)O)ccc2c1 [NAPROXEN] displays Bacterial Biotransformation of Compound NOT metabolized

// field: Bacterial Biotransformation; key: CC(CN(C)C)CN1c2ccccc2CCc2ccccc21.O=C(O)/C=C\C(=O)O (stereo not given) [TRIMIPRAMINE MALEATE] ; value = Compound NOT metabolized

Per the record, CCCCc1nc(Cl)c(CO)n1Cc1ccc(-c2ccccc2-c2nn[nH]n2)cc1 [LOSARTAN] has Bacterial Biotransformation of Compound NOT metabolized

For reference, reported Bacterial Biotransformation for CS(=O)(=O)O.OC(CCN1CCCCC1)(c1ccccc1)c1ccccc1 [PRIDINOL METHANESULFONATE] stands at Compound NOT metabolized

Bacterial Biotransformation for O=C1CC2(CCCC2)CC(=O)N1CCCCN1CCN(c2ncccn2)CC1 [BUSPIRONE] is Compound NOT metabolized

Short answer for CC(C)c1nc(N(C)S(C)(=O)=O)nc(-c2ccc(F)cc2)c1/C=C/[C@@H](O)C[C@@H](O)CC(=O)[O-].CC(C)c1nc(N(C)S(C)(=O)=O)nc(-c2ccc(F)cc2)c1/C=C/[C@@H](O)C[C@@H](O)CC(=O)[O-].[Ca+2] [ROSUVASTATIN CALCIUM] : Bacterial Biotransformation was Compound NOT metabolized
